Values compiled from ChEMBL document CHEMBL2434928.

Test system: Pasteurella multocida
Assay: Antimicrobial activity against Pasteurella multocida clinical isolate after 24 hrs by broth microdilution method
Type: functional
experimentalEndpoint: MIC

> print(dat)
                                givensmiles  experimentalvalue
1  CC(C)[C@H](NC(=O)c1cc(Cl)ccc1O)C(=O)Nc1ccc(C(F)(F)F)cc1           > 617 µM
2  CC(C)[C@H](NC(=O)c1ccc(Cl)cc1O)C(=O)Nc1ccc(Br)cc1           > 601 µM
3  CC(C)[C@H](NC(=O)OCc1ccccc1)C(=O)Oc1ccc(Cl)cc1C(=O)Nc1ccccc1           > 517 µM
